Hello, the source for this data is ChEMBL document CHEMBL1135816, in case you need it.

Experiment: Plasma clearance (Cl) for the compound in female rats for a dose of 1 mg/kg administered intravenously
Type: ADME, organism-based
Set-up: dose 1 mg/kg, route intravenous
Settings: rat, iv, read-out: Clp (converted)
recorded_metric: clearance (L/h/kg)

a: CC1(C)OC(=O)Nc2ccc(-c3cccc(C#N)c3)cc21
b: CC1(C)OC(=O)Nc2ccc(-c3cc(F)cc(C#N)c3)cc21
QUERY: Kindly identify the item with the lower clearance figure among these two: a and b Identify your selection by its label.
RESULT: b

====

Molecular target: Progesterone receptor (Homo sapiens)
Sequence (P06401 whole entry): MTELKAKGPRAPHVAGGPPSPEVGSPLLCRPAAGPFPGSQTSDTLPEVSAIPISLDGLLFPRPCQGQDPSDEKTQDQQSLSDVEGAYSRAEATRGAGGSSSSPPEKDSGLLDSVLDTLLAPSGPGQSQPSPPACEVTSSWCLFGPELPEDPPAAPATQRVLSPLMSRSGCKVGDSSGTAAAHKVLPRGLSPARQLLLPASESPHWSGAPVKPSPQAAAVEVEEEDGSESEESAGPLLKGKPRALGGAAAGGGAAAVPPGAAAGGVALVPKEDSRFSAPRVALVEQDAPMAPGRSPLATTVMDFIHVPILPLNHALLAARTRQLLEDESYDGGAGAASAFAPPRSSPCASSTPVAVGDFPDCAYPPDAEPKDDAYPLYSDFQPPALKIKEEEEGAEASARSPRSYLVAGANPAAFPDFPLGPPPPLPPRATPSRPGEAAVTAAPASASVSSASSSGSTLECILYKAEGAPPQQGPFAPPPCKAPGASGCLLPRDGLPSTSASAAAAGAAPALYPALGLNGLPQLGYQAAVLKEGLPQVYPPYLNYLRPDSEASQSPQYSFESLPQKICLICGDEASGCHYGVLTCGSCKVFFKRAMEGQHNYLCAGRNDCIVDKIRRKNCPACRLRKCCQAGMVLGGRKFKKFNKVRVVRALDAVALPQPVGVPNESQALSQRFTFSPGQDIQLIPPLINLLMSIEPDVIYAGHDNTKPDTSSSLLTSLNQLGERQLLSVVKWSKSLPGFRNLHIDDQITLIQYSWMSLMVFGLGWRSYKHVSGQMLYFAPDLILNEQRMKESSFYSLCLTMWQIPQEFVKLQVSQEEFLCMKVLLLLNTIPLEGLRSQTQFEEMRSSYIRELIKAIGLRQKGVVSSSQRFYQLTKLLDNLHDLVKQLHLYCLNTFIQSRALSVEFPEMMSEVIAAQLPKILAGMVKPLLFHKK
Assay: Antagonist activity against progesterone receptor (PR) in an assay using PRE-luciferase plasmid co-transfected CV-1 cells
Format: functional, cell-based
recorded_metric: IC50 (nM)

chemical_smiles	target_under_test	recorded_metric	recorded_measurement
CC1(C)OC(=O)Nc2ccc(-c3cccc(C#N)c3)cc21	Progesterone receptor (Homo sapiens)	IC50	9.9
CC1(C)OC(=O)Nc2ccc(-c3cccc(Cl)c3)cc21	Progesterone receptor (Homo sapiens)	IC50	9.3

a: CC1(C)OC(=O)Nc2ccc(-c3cc(F)cc(Cl)c3)cc21
b: COc1cccc(-c2ccc3c(c2)C(C)(C)OC(=O)N3)c1
QUERY: Hello, I am sorting some records. Could you say if a or b has the smaller IC50 value? // return label of chosen record
RESULT: a
(a: 2.6 nM, b: 38.3 nM)

1: CC1(C)OC(=O)Nc2ccc(-c3cccc(F)c3)cc21
2: CC1(C)OC(=O)Nc2ccc(-c3ccccc3Cl)cc21
3: CC1(C)OC(=O)Nc2c(F)cc(-c3cc(F)cc(C#N)c3)cc21
4: CC1(C)OC(=O)Nc2ccc(-c3cc(F)cc(C#N)c3)cc21
QUERY: // ascending sort on recorded IC50 Kindly provide the labels arranged according to the requested ordering.
RESULT: 1, 4, 3, 2
(1: 3.8 nM, 4: 15.9 nM, 3: 98.8 nM, 2: 500 nM)
